molecular target: β5 subunit of the human immunoproteasome (IPS) (Homo sapiens); assay: β5 inhibition assay, human immunoproteasome (Suc-LLVY-AMC); conditions: IC50 class, Suc-LLVY-AMC substrate
pIC50: −log10 of the molar value.
assay endpoint: pIC50

Consider the worked cases shown below.
| compound | study system | pIC50 |
| --- | --- | --- |
| Cc1ccc2cc1CNC(=O)[C@H](CCc1ccccc1)NC(=O)[C@@H](NC(=O)CCc1ccc(-c3ccccc3)cc1)CC(=O)N1CCCC(CCO2)C1 (stereo partly drawn) | β5 subunit of the human immunoproteasome (IPS) (Homo sapiens) | > 7.00 |
| Cc1ccc2cc1CNC(=O)[C@H](CCc1ccccc1)NC(=O)[C@@H](NC(=O)N1CCc3cc(N)ccc31)CC(=O)N1CCCC(CCO2)C1 (stereo partly drawn) | β5 subunit of the human immunoproteasome (IPS) (Homo sapiens) | > 7.00 |

# input for lookup
Item: Cc1ccc2cc1CNC(=O)[C@H](CCc1ccccc1)NC(=O)[C@@H](NC(=O)Cc1ccc(N)cc1F)CC(=O)N1CCCC(CCO2)C1 (stereo partly drawn) Test system: β5 subunit of the human immunoproteasome (IPS) (Homo sapiens) Read-out: pIC50 Value: ?
> 7.00

###

test system: HT-29 cells; assay: CellTiter-Glo luminescent cell viability assay with HT-29 cells (72h incubation); type: cell-based, human; conditions: Homo sapiens, HT-29, HT29 cells, read-out: CTG HT29
pIC50: −log10 of the molar value.
Measured pIC50 accompanies every entry in the list below.

Example results:
| compound | study system | pIC50 |
| --- | --- | --- |
| Cc1ccc2cc1CNC(=O)[C@H](CCc1ccccc1)NC(=O)[C@@H](NC(=O)Cc1cc(O)on1)CC(=O)N1CCCC(CCO2)C1 (stereo partly drawn) | HT-29 cells | > 7.00 |
| Cc1ccc2cc1CNC(=O)[C@H](CCc1ccccc1)NC(=O)[C@@H](NC(=O)C1(C)CCNCC1)CC(=O)N1CCCC(CCO2)C1 (stereo partly drawn) | HT-29 cells | 6.30 to 7.00 |

Form field: reported pIC50 of Cc1ccc2cc1CNC(=O)[C@H](CCc1ccccc1)NC(=O)[C@@H](NC(=O)CCc1ccc3[nH]ccc3c1)CC(=O)N1CCCC(CCO2)C1 (stereo partly drawn)
> 7.00

# query: pIC50 of entry CC(=O)N[C@H]1CC(=O)N2CCCC(CCOc3ccc(C)c(c3)CNC(=O)C(c3cnn(CCS(=O)(=O)O)c3)NC1=O)C2 (stereo partly drawn)
6.30 to 7.00

Given the compound Cc1ccc2cc1CNC(=O)C(CCc1cnc3nccnc3c1)NC(=O)[C@@H](NC(=O)OCc1ccccc1)CC(=O)N1CCCC(CCO2)C1 (stereo partly drawn) , what is its reported pIC50?
> 7.00

Which pIC50 reading was recorded for the compound CC(=O)N[C@H]1CC(=O)N2CCCC(CCOc3ccc(C)c(c3)CNC(=O)C(c3cnn(Cc4ccccc4)c3)NC1=O)C2 (stereo partly drawn) ?
> 7.00

###

system: Hs 746T (human gastric carcinoma cell line); experiment: 48 hr CTG viability assay, Hs 746T; format: cell-based; conditions: Hs746T, 48 hr CTG, read-out: Hs 746T IC50
pIC50: −log10 of the molar value.
assay endpoint: pIC50

Solved entries:
| compound | pIC50 |
| --- | --- |
| Cc1ccc2cc1CNC(=O)[C@H](CCc1ccccc1)NC(=O)[C@@H](NC(=O)N1CCc3cnccc31)CC(=O)N1CCCC(CCO2)C1 (stereo partly drawn) [Compound 703] | > 7.00 |
| Cc1ccc2cc1CNC(=O)[C@H](CCc1ccncc1)NC(=O)[C@@H](NC(=O)C1(F)CCNCC1)CC(=O)N1CCCC(CCO2)C1 (stereo partly drawn) [Compound 729] | 6.30 to 7.00 |

Which pIC50 value belongs to Cc1ccc2cc1CNC(=O)[C@H](CCc1ccccc1)NC(=O)[C@@H](NC(=O)CCNC1CC3(CCC3)C1)CC(=O)N1CCCC(CCO2)C1 (stereo partly drawn) [Compound 657] ?
> 7.00

###

target: β5 subunit of the human constitutive proteasome (CPS) (Homo sapiens, UniProt P28074); experiment: β5 inhibition assay, human constitutive proteasome (Suc-LLVY-AMC); settings: IC50 class, Suc-LLVY-AMC substrate
assay endpoint: IC50

Below, each entry is followed by its recorded IC50 result.
| compound | IC50 |
| --- | --- |
| Cc1ccc2cc1CNC(=O)[C@H](CCc1ccccc1)NC(=O)[C@@H](NC(=O)c1ccccc1)CC(=O)N1CCCC(CCO2)C1 (stereo partly drawn) [Compound 26] | < 100 nM |
| Cc1ccc2cc1CNC(=O)[C@H](CCc1ccccc1)NC(=O)[C@@H](NC(=O)Cc1ccc(N)cc1F)CC(=O)N1CCCC(CCO2)C1 (stereo partly drawn) [Compound 318] | < 100 nM |

Find the recorded IC50 belonging to Cc1ccc2cc1CNC(=O)[C@H](CCc1ccccc1)NC(=O)[C@@H](NC(=O)CN1CCC1)CC(=O)N1CCCC(CCO2)C1 (stereo partly drawn) [Compound 663] and report it.
< 100 nM

Can you share its IC50? I mean this compound: Cc1ccc2cc1CNC(=O)[C@H](CCc1ccccc1)NC(=O)[C@@H](NC(=O)CCNC(=O)C1CC3(CCC3)C1)CC(=O)N1CCCC(CCO2)C1 (stereo partly drawn) [Compound 616]
< 100 nM

# IC50 lookup, item Cc1ccc2cc1CNC(=O)[C@H](CCc1ccccc1)NC(=O)[C@@H](NC(=O)N1Cc3ccc(N)cc3C1)CC(=O)N1CCCC(CCO2)C1 (stereo partly drawn) [Compound 687]
< 100 nM

What value of IC50 has been reported for the following compound? Cc1ccc2cc1CNC(=O)[C@H](CCc1ccncc1)NC(=O)[C@@H](NC(=O)Cc1ccccc1F)CC(=O)N1CCCC(CCO2)C1 (stereo partly drawn) [Compound 737]
< 100 nM

GET /values?readout=IC50&item= Cc1nc(C2NC(=O)[C@@H](NC(=O)OCc3ccccc3)CC(=O)N3CCCC(CCOc4ccc(C)c(c4)CNC2=O)C3)co1 (stereo partly drawn) [Compound 512]
< 100 nM

Tell me the measured IC50 of Cc1ccc2cc1CNC(=O)[C@H](CCc1ccccc1)NC(=O)[C@@H](NC(=O)C1CC3(C1)CN(C(=O)OC(C)(C)C)C3)CC(=O)N1CCCC(CCO2)C1 (stereo partly drawn) [Compound 580] , please.
< 100 nM

Item Cc1ccc2cc1CNC(=O)[C@H](CCc1ccccc1)NC(=O)CCCC(=O)N1CCCC(CCO2)C1 (stereo partly drawn) [Compound 19] has what recorded IC50?
< 100 nM

Which IC50 is reported for this compound? Cc1ccc2cc1CNC(=O)[C@H](CCc1ccccc1)NC(=O)[C@@H](NC(=O)CCN1CC3CCC1C3)CC(=O)N1CCCC(CCO2)C1 (stereo partly drawn) [Compound 673]
< 100 nM

// returns reported IC50 for input Cc1ccc2cc1CNC(=O)[C@H](CCc1ccncc1)NC(=O)[C@@H](NC(=O)Cc1ccc(N)cc1C)CC(=O)N1CCCC(CCO2)C1 (stereo partly drawn) [Compound 654]
< 100 nM

Given the compound COc1ccc(OCCC(=O)N[C@H]2CC(=O)N3CCCC(CCOc4ccc(C)c(c4)CNC(=O)[C@H](CCc4ccccc4)NC2=O)C3)cc1 (stereo partly drawn) [Compound 622] , what is its reported IC50?
< 100 nM

Query: IC50; subject: Cc1ccc2cc1CNC(=O)[C@H](CCc1ccccc1)NC(=O)[C@@H](NC(=O)CCO[C@H]1C[C@@H]3CC[C@H]1C3)CC(=O)N1CCCC(CCO2)C1 [Compound 642]
< 100 nM

Look up IC50: Cc1ccc2cc1CNC(=O)[C@H](CCc1ccccc1)NC(=O)[C@@H](NC(=O)CC1=NN(c3ccccc3)C(=O)C1)CC(=O)N1CCCC(CCO2)C1 (stereo partly drawn) [Compound 334]
< 100 nM

Which IC50 is reported for this compound? Cc1ccc2cc1CNC(=O)[C@H](CCc1ccccc1)NC(=O)[C@@H](NC(=O)CCNC1CC3(COC3)C1)CC(=O)N1CCCC(CCO2)C1 (stereo partly drawn) [Compound 720]
< 100 nM

Report IC50 for Cc1ccc2cc1CNC(=O)[C@H](CCc1ccccc1)NC(=O)[C@@H](NC(=O)c1nc3ccccc3[nH]1)CC(=O)N1CCCC(CCO2)C1 (stereo partly drawn) [Compound 31] please.
< 100 nM

Which IC50 reading was recorded for the compound Cc1ccc2cc1CNC(=O)[C@H](CCc1ccccc1)NC(=O)[C@@H](NC(=O)C1CCNCC1(F)F)CC(=O)N1CCCC(CCO2)C1 (stereo partly drawn) [Compound 152] ?
< 100 nM

Item Cc1ccc2cc1CNC(=O)[C@H](CCc1ccccc1)NC(=O)CCCCC(=O)N1CCCC(CCO2)C1 (stereo partly drawn) [Compound 16] has what recorded IC50?
< 100 nM

Query (compound): Cc1ccc2cc1CNC(=O)[C@H](CCc1ccccc1)NC(=O)[C@@H](NC(=O)C1CC3CCC(C1)N3C)CC(=O)N1CCCC(CCO2)C1 (stereo partly drawn) [Compound 713] ; field requested: IC50
< 100 nM

Which IC50 reading was recorded for the compound Cc1ccc2cc1CNC(=O)[C@H](CCc1ccccc1)NC(=O)CCC(=O)N1CCCC(CCO2)C1 (stereo partly drawn) [Compound 13] ?
< 100 nM

Sample COc1cccc(CCOCCC(=O)N[C@H]2CC(=O)N3CCCC(CCOc4ccc(C)c(c4)CNC(=O)[C@H](CCc4ccccc4)NC2=O)C3)c1 (stereo partly drawn) [Compound 581] — what was its IC50?
< 100 nM

Reported IC50, compound Cc1ccc2cc1CNC(=O)[C@H](CCc1ccccc1)NC(=O)[C@@H](NC(=O)CCNC(=O)C1CC3CCC1C3)CC(=O)N1CCCC(CCO2)C1 (stereo partly drawn) [Compound 617] : ____
< 100 nM

Need IC50, item CC(=O)c1ccc(CC(=O)N[C@H]2CCC(=O)NCCCCOc3ccc(C)c(c3)CNC(=O)[C@H](CCc3ccccc3)NC2=O)cc1 [Compound 707]
< 100 nM

Suppose we examine the compound Cc1ccc2cc1CNC(=O)[C@H](CCc1ccccc1)NC(=O)[C@@H](NC(=O)C1CC(F)(F)CN1)CC(=O)N1CCCC(CCO2)C1 (stereo partly drawn) [Compound 135] ; what IC50 value has been reported?
< 100 nM

// data source = patent US20240415819A1
